experimental-system: T1, RA peptide (XAKLDEESILKQK-FITC, X = R)
T1 construct: also called peptide with N-terminal arginine
T1 peptide: RAKLDEESILKQK(FITC)
method-description: fluorescence polarization titration, PS621 0-5000 nM
No end group written: not given here. *: point of attachment. FITC = O=C1OC2(c3ccc(O)cc3Oc3cc(O)ccc32)c2ccc(NC(=S)*)cc21
recorded-metric: pKd
Schema: pKd number; meaning minus log10 of the concentration expressed in molar units.

In: Tell me the measured pKd of PS621 (other, tag of the assay construct not specified; also called UBR protein from Kluyveromyces marxianus) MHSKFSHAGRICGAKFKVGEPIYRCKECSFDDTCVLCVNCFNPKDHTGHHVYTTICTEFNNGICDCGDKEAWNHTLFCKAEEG , please.
Out: 6.32

Data credit: patent US20240272170A1
